- run_conditions: mouse, microsomes, 1 µM
- Description: DNDI: in vitro intrinsic clearance in mouse liver microsomes at a concentration of 1uM
observed_property: CLint in vitro (µL/min/mg)
Number only, in µL/min/mg; omit the unit.

What CLint in vitro value was documented for this compound, CCCCCC(C)NCc1coc(-c2ccc(OCC)cc2)n1 (stereo not drawn) ?
36

Look up CLint in vitro for this compound: O/N=C(\Nc1ccccc1)c1ccccc1-c1ccccc1
352

Fill blank: measured CLint in vitro of the compound CCc1ccc(Oc2ncccc2/C(=N\O)NC2CCCC[C@@H]2N)cc1 (stereo partly drawn) is ____.
7

Reported CLint in vitro, compound CCCCCC(C)NCc1coc(-c2ccc(OC(C)CC)cc2)n1 (stereo not drawn) : ____
3

Requested read-out: CLint in vitro. Entry: CC(C)(C)c1ccc(Oc2ncccc2/C(=N/O)Nc2cccc(F)c2)cc1
35.83

What value of measured CLint in vitro is listed for CCCCCC(C)NCc1coc(-c2ccccc2Oc2ccccc2)n1 (stereo not drawn) ?
220

Please give the measured CLint in vitro for this compound: CC(C)CNC(CCc1ccccc1)c1nc(Cc2ccccc2)c(N2CCCCC2)o1 (stereo not drawn)
307

Data request, read-out CLint in vitro, for CCCCc1ccc(-c2nc(CNCCN(C)C)co2)cc1
55
